Values were extracted from ChEMBL document CHEMBL1125126.

Assay System: Estrogen receptor (Rattus norvegicus) (UniProt P06211+Q62986)
Measurement Description: Displacement of [3H]estradiol from rat uterine estrogen receptor
Assay type: protein assay
Recorded Metric: RBA (%)

[[record]]
molecule_smiles = "Oc1ccc2c(c1)CC(c1ccccc1F)=C2c1ccccc1"
experimental_result = 49

[[record]]
molecule_smiles = "Oc1ccc(C2=C(c3ccccc3)Cc3cc(O)ccc32)c(F)c1"
experimental_result = 9.6

[[record]]
molecule_smiles = "Cc1ccc(C2=C(c3ccccc3)Cc3cc(O)ccc32)cc1"
experimental_result = 1.7

[[record]]
molecule_smiles = "Oc1ccc2c(c1)CC(c1ccccc1)=C2c1ccccc1F"
experimental_result = 12


(P) Cc1ccccc1C1=C(c2ccccc2)Cc2cc(O)ccc21
(Q) Cc1ccccc1C1=C(c2ccccc2)c2ccc(O)cc2C1
(R) Cc1ccccc1C1=C(c2ccc(O)cc2)c2ccc(O)cc2C1
// sort entries: RBA, high to low Answer format: the labels, ordered as requested.
Q, R, P
